Values from PubChem BioAssay (EPA / NIEHS)

Experiment: BSK_BE3C_SRB: Viability Assessment in the BioMAP Diversity Plus: BE3C Assay (AID 2283028);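 also: measured 24 h after chemical dosing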
Conditions: primary human bronchial epithelial cells
The source made the active and inactive calls. The calls were made as follows: active = hit-call score of the fitted dose curve at least 0.9, where 1 is the maximum; inactive = score below 0.9.
Can you answer with just one of these options? active, inactive

>>> group("CNc1cnn(-c2cccc(C(F)(F)F)c2)c(=O)c1Cl")
"inactive"

Field: outcome | Entry: CCOP(=S)(OCC)OC(Cl)C(Cl)(Cl)Cl (stereo not given)
inactive

Per the records of this test, what outcome belongs to CNC(=O)ON=C(C)SC ?
inactive

Which outcome was assigned to CC1(C(=O)Nc2ccc(O)c(Cl)c2Cl)CCCCC1 in this test?
active

Test call for this compound, please: S=C1NCCN1
inactive

Tell me the recorded outcome of this test for FC(F)C(F)(F)OCC(Cn1cncn1)c1ccc(Cl)cc1Cl (stereo not given) .
inactive
